# TARGET OF ASSAY: bovine α3β4 nicotinic acetylcholine receptors (Bos taurus, UniProt Q07263+Q8SPU6)
# Construct: host or cells: Xenopus laevis oocytes injected with in vitro transcribed mRNA
# Sequence (Q07263 22-495): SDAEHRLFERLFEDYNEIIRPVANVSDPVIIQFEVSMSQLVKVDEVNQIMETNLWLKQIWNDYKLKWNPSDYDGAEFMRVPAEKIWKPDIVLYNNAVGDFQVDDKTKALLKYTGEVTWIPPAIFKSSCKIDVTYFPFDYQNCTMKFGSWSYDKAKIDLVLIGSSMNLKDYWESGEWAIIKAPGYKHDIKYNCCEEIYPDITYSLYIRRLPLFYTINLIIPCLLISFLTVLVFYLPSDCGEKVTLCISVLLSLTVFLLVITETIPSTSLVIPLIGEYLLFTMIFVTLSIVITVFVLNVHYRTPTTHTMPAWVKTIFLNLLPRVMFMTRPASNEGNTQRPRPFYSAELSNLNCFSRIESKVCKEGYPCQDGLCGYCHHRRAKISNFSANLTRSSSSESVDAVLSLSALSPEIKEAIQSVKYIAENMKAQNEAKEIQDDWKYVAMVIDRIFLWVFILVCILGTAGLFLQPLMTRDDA
# Sequence (Q8SPU6 20-496): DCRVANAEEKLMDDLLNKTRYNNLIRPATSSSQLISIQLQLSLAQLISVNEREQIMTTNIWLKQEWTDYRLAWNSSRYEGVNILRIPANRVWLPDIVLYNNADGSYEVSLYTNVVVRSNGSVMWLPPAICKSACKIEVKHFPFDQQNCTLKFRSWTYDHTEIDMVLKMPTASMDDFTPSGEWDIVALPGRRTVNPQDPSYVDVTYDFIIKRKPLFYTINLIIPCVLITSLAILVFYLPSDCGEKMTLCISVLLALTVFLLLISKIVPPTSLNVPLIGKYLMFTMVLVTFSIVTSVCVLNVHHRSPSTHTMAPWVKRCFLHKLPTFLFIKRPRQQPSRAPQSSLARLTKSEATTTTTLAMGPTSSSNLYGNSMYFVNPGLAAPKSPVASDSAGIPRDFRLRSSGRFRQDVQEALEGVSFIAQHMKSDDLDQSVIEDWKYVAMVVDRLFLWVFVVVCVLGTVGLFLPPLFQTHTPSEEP
# ASSAY: Two-electrode voltage clamp of ACh-induced inward current (IACh), wild-type α3β4 nAChRs expressed in Xenopus oocytes
# Assay type: cell-based
# MEASUREMENT SETUP: in the absence of BA; holding potential −80 mV
MEASUREMENT NAME: EC50 (µM)

COMPOUND | UNITS SYMBOL | MEASURED
CC(=O)OCC[N+](C)(C)C [ACh, acetylcholine] | µM | 9.4

====

# TARGET OF ASSAY: bovine α3β4 nicotinic acetylcholine receptors (Bos taurus, UniProt Q07263+Q8SPU6)
# ASSAY: Two-electrode voltage clamp of ACh-induced inward current (IACh), wild-type α3β4 nAChRs expressed in Xenopus oocytes
# MEASUREMENT SETUP: wild-type; co-applied with 100 μM ACh; holding potential −80 mV; read-out: IC50 (half-maximal inhibitory response concentration)
MEASUREMENT NAME: IC50 (nM)

COMPOUND | UNITS SYMBOL | MEASURED
CNC1(C)C2CCC(C2)C1(C)C (stereo not shown) [MEC, mecamylamine, reference compound] | nM | 1500
